# target.of.assay: GABA-A receptor; anion channel
# method.notes: Inhibition of radiolabeled antagonist [3H]-Ro- 15-1788 binding to benzodiazepine receptor from rat cortical membranes
# Format: cell membranes, Membrane
// NB: equality with 9 nM counts as label 0; only IC50 strictly below is label 1

smi	class.label
CCc1nc(-c2ncn3c2CN(C)C(=O)c2c(F)cccc2-3)no1	label 0
CCCc1nc(-c2ncn3c2CN=C(c2ccccc2)c2cc(Cl)ccc2-3)no1	label 0
CCc1noc(-c2ncn3c2CN=C(c2ccccc2Cl)c2cc(Cl)ccc2-3)n1	label 0
Cc1nc(-c2ncn3c2CN(C)C(=O)c2c(F)cccc2-3)no1	label 0
CC(C)c1nc(-c2ncn3c2CN(C)C(=O)c2ccccc2-3)no1	label 0
CCc1noc(-c2ncn3c2CN(C)C(=O)c2cc(Cl)ccc2-3)n1	label 0
CCc1nc(-c2ncn3c2CN=C(c2ccccc2Cl)c2cc(Cl)ccc2-3)no1	label 0
CC(C)c1nc(-c2ncn3c2CN=C(c2ccccc2Cl)c2cc(Cl)ccc2-3)no1	label 0
CCCc1noc(-c2ncn3c2CN=C(c2ccccc2)c2ccccc2-3)n1	label 0
CC(C)c1noc(-c2ncn3c2CN(C)C(=O)c2ccccc2-3)n1	label 0
CC(C)c1noc(-c2ncn3c2CN=C(c2ccccc2)c2c(Cl)cccc2-3)n1	label 1
CCCc1noc(-c2ncn3c2CN(C)C(=O)c2c(Cl)cccc2-3)n1	label 1
CCCc1nc(-c2ncn3c2CN=C(c2ccccc2Cl)c2ccccc2-3)no1	label 0
Cc1nc(-c2ncn3c2CN=C(c2ccccc2Cl)c2ccccc2-3)no1	label 1
CC(C)c1nc(-c2ncn3c2CN=C(c2ccccc2)c2ccccc2-3)no1	label 0
Cc1nc(-c2ncn3c2CN=C(c2ccccc2)c2c(F)cccc2-3)no1	label 1
Cc1nc(-c2ncn3c2CN=C(c2ccccc2Cl)c2cc(Cl)ccc2-3)no1	label 0
Cc1noc(-c2ncn3c2CN(C)C(=O)c2c(Cl)cccc2-3)n1	label 1
Cc1noc(-c2ncn3c2CN=C(c2ccccc2)c2c(F)cccc2-3)n1	label 1
CCc1noc(-c2ncn3c2CN(C)C(=O)c2ccccc2-3)n1	label 0
CC(C)c1noc(-c2ncn3c2CN=C(c2ccccc2)c2c(F)cccc2-3)n1	label 1
Cc1noc(-c2ncn3c2CN=C(c2ccccc2)c2cc(Cl)ccc2-3)n1	label 0
CCCc1nc(-c2ncn3c2CN(C)C(=O)c2c(Cl)cccc2-3)no1	label 1
CC(C)c1nc(-c2ncn3c2CN=C(c2ccccc2Cl)c2ccccc2-3)no1	label 0
Cc1nc(-c2ncn3c2CN=C(c2ccccc2)c2cc(Cl)ccc2-3)no1	label 0
